Below, each entry is listed alongside its reported viability at 4 h, 0.1 µM.
test: Cytotoxicity against C57BL/6 mouse BMDM cells assessed as cell viability at 0.1 uM incubated for 4 hrs by CCK-8 assay relative to control; format: toxicity, cell-based; settings: bone marrow-derived macrophages (BMDM cells), read-out: Activity
Please format your answer as a value with the unit trailing.

CC(=O)Nc1ccc(-c2ccc(NC(=O)Nc3ccc(CN4CCN(C)CC4)cc3)c(F)c2)cn1 = 94.9%
CN1CCN(Cc2ccc(NC(=O)Nc3ccc(-c4ncc(N)cn4)cc3F)cc2C(F)(F)F)CC1 = 71.8%
CN1CCN(Cc2ccc(NC(=O)Nc3ccc(-c4cnc(N)c5ccccc45)cc3F)cc2C(F)(F)F)CC1 = 108%
CN1CCN(Cc2ccc(NC(=O)Nc3ccc(-c4cccnc4N)cc3F)cc2C(F)(F)F)CC1 = 65%
CC(=O)Nc1ccc(-c2ccc(NC(=O)Nc3cccc(C(F)(F)F)c3)c(F)c2)cn1 = 96.4%

// query Indicate the recorded viability at 4 h, 0.1 µM value for this compound: "CN1CCN(Cc2ccc(NC(=O)Nc3ccc(-c4cnc5cccnn45)cc3F)cc2C(F)(F)F)CC1"
// result 91.4%

// query Provide measured viability at 4 h, 0.1 µM value, entry: "CN1CCN(Cc2ccc(NC(=O)Nc3ccc(-c4nc(N)c5ccccc5n4)cc3F)cc2C(F)(F)F)CC1"
// result 108%

// query For the compound "CN1CCN(Cc2ccc(NC(=O)Nc3ccc(-c4ccnc(N)n4)cc3F)cc2C(F)(F)F)CC1" , give its measured viability at 4 h, 0.1 µM value.
// result 78%

// query Identify viability at 4 h, 0.1 µM associated with the compound "CC(=O)Nc1ccc(-c2ccc(NC(=O)c3ccc(CN4CCN(C)CC4)c(C(F)(F)F)c3)c(F)c2)cn1"
// result 92.6%

====

Measured CC50 at 4 h by item
test: Cytotoxicity against C57BL/6 mouse BMDM cells assessed as cell viability incubated for 4 hrs by CCK-8 assay; type: toxicity, cell-based; conditions: bone marrow-derived macrophages (BMDM cells)
I only need the number, in µM, no unit after it.

CN1CCN(Cc2ccc(NC(=O)Nc3ccc(-c4ccc(N)nc4)cc3F)cc2C(F)(F)F)CC1 = 0.247

// query Using the record for "CC(=O)Nc1ccc(-c2ccc(NC(=O)Nc3ccc(CN4CCN(C)CC4)c(C(F)(F)F)c3)c(F)c2)cn1" , state its measured CC50 at 4 h.
// result 3.84

====

IC50 overview
assay: Inhibition of NLRP3 inflammasome activation in LPS-induced C57BL/6 mouse BMDM cells assessed as reduction in IL-1beta release preincubated with LPS for 1 hrs followed by compound addition and measured after 2 hrs by ELISA; format: cell-based; settings: C57BL/6, BMDM
Field: value (include unit after the number)

Some solved entries appear below for comparison.
CC(=O)Nc1ccc(-c2ccc(NC(=O)Nc3ccc(CN4CCN(C)CC4)c(C(F)(F)F)c3)c(F)c2)cn1 = 48 nM
CC(C)(O)c1coc(S(=O)(=O)NC(=O)Nc2c3c(cc4c2CCC4)CCC3)c1 = 85 nM

// query Specify IC50 for "CN1CCN(Cc2ccc(NC(=O)Nc3ccc(-c4ccc(N)nc4)cc3F)cc2C(F)(F)F)CC1" and stop.
// result 30 nM

====

target: Serine/threonine-protein kinase Nek7 (Homo sapiens, UniProt Q8TDX7); experiment: Inhibition of N-terminal GST-tagged full-length recombinant human NEK7 extracted from baculovirus infected in Sf9 cells preincubated for 20 mins followed by [32P]-ATP addition and measured after 2 hrs
Sequence (Q8TDX7 whole entry): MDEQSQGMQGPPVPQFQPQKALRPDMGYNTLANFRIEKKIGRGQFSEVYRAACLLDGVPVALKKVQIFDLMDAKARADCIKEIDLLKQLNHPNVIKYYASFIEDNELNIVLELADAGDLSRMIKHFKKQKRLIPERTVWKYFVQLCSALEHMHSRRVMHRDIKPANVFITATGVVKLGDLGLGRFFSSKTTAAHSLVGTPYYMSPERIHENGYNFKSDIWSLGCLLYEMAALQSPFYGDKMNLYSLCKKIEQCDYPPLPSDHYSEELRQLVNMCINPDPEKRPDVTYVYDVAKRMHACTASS
pIC50: −log10 of the molar value.
ASSAY METRIC: pIC50

// query Identify pIC50 associated with the compound "CN1CCN(Cc2ccc(NC(=O)Nc3ccc(-c4cn(C5CC5)c5ncnc(N)c45)cc3F)cc2C(F)(F)F)CC1"
// result > 7.00

====

assay: Cytotoxicity against C57BL/6 mouse BMDM cells assessed as cell viability at 0.1 uM incubated for 4 hrs by CCK-8 assay relative to control; type: toxicity, cell-based; conditions: bone marrow-derived macrophages (BMDM cells), read-out: Activity
ASSAY METRIC: viability at 4 h, 0.1 µM
Enter the number, and then the unit.

// query Using the record for "CN1CCN(Cc2ccc(NC(=O)Nc3ccc(-c4cncnc4N)cc3F)cc2C(F)(F)F)CC1" , state its measured viability at 4 h, 0.1 µM.
// result 106%

// query Find the measured viability at 4 h, 0.1 µM of "CC(=O)Nc1ccc(-c2ccc(C(=O)Nc3ccc(CN4CCN(C)CC4)c(C(F)(F)F)c3)c(F)c2)cn1" and report it.
// result 90.4%

// query Give a short answer stating reported viability at 4 h, 0.1 µM for "COc1ccc(-c2ccc(NC(=O)Nc3ccc(CN4CCN(C)CC4)c(C(F)(F)F)c3)c(F)c2)cn1" .
// result 104%

// query Return reported viability at 4 h, 0.1 µM. Input compound: "CN1CCN(Cc2ccc(NC(=O)Nc3ccc(-c4cn(C5CC5)c5ncnc(N)c45)cc3F)cc2C(F)(F)F)CC1"
// result 17.2%

====

viability at 4 h, 0.1 µM values by entry
experiment: Cytotoxicity against C57BL/6 mouse BMDM cells assessed as cell viability at 0.1 uM incubated for 4 hrs by CCK-8 assay relative to control; assay type: toxicity, cell-based; conditions: bone marrow-derived macrophages (BMDM cells), read-out: Activity
State just the number; it will be interpreted in %.

CN1CCN(Cc2ccc(NC(=O)Nc3ccc(-c4c(N)ncc5ccccc45)cc3F)cc2C(F)(F)F)CC1 = 61.1
CN1CCN(Cc2ccc(NC(=O)Nc3ccc(-c4cccc(N)n4)cc3F)cc2C(F)(F)F)CC1 = 109
CN1CCN(Cc2ccc(NC(=O)Nc3ccc(-c4ccc(N)cn4)cc3F)cc2C(F)(F)F)CC1 = 104

Moving on to the next molecule.
// query Retrieve viability at 4 h, 0.1 µM measured for "CN1CCN(Cc2ccc(NC(=O)Nc3ccc(-c4nc(N)cc5ccccc45)cc3F)cc2C(F)(F)F)CC1" and print it.
// result 122

Origin of measurements: ChEMBL document CHEMBL6078689
